System: EKVX NSCLC
Experiment: NCI-60 one-dose screen, 48 h (100 = growth as untreated, 0 = no growth, -100 = all killed)
Settings: 10 µM unless noted
The panel holds about 83,000 compounds, 20% with a hit somewhere; the sample as a whole holds those more often.
// returns F unless growth is strictly below 90%, in which case T

Compound | System Name | Label Class
CC1=C([Se]CC(OC(=O)[C@@H](CO)NC(=O)OC(C)(C)C)C(=O)NC(C)(C)C)C(=O)c2ccccc2C1=O (some centres undefined) | EKVX NSCLC | T

Prompt: Record CC1(C)CC(=O)C2=C(C1)N(c1ccc(OC(F)(F)F)cc1)C(N)=C(C#N)C2c1ccc(Cl)cc1 (centres undefined) : is its growth strictly below 90%?
Completion: T

Prompt: Hello, I'm reviewing records and need to know if growth of `O=c1oc2ccccc2c(Cl)c1Cl` is below 90%. Could you check?
Completion: F

Prompt: Take the compound CN(C)CC1C(=O)O[C@H]2[C@H]1CC/C(COC(=O)c1cc3ccccc3[nH]1)=C\CC[C@@]1(C)O[C@@H]21 (some centres undefined) and say whether its growth is less than 90%.
Completion: T

Prompt: hey, is growth for `COC(=O)[C@]12CC[C@@H](C)[C@H](C)[C@@H]1C1=CC[C@@H]3[C@@]4(C)C(C=O)=C[C@@](C)(COC(C)=O)[C@@H]4C(=O)C[C@@]3(C)[C@]1(C)CC2` lower than 90% or not?
Completion: T

Prompt: Hi there! Is growth for `Cc1occc1-c1n[nH]c(=S)n1N1C(=O)CSC1=S` below 90%, do you know?
Completion: F

Prompt: Please state whether growth is below 90% for CCC(CO)Nc1nc2ccc(Cl)cc2c2ccccc12 (centres undefined)
Completion: T

Prompt: Problem: For the compound `O=c1c2c3c(sc2nc(N/N=C/c2ccc(Br)cc2)n1Cc1ccccc1)CCCC3` , is growth under 90%?
Completion: T

Prompt: Would you kindly verify if growth of `c1ccc2c(c1)nc(CN1CCOCC1)n1cc(N3CCCC3)nc21` is strictly less than 90%?
Completion: T

Prompt: Problem: For the compound `COc1ccccc1N1C(=O)/C(=C/C2=Cc3ccccc3OC2)SC1=S` , is growth under 90%?
Completion: F

Prompt: Is it true that growth reported for `COc1cc(/C=C/C(=O)c2cccc(-n3cc(-c4ccccc4)[nH]c3=O)c2)ccc1O` is less than 90%?
Completion: T

Prompt: Please check: growth for `O=C(NCCCNc1cc(-c2cn(-c3ccccc3)nc2-c2cccc(O)c2)ccn1)c1ccc(F)cc1` , strictly under 90% or not?
Completion: T

Prompt: A record lists CCN(CC)CCCC(C)Nc1c2ccc(Cl)cc2nc2ccc(O)cc12 (centres undefined) . Is its growth below 90%?
Completion: T

###

System: SR leukemia
Assay: NCI-60 one-dose screen, 48 h
Settings: 10 µM unless noted
This is part of a sample that, as a whole, favours compounds with a hit. Of some 83,000 tested, about 20% had one in any assay. The source made the active and inactive calls. How the source made its calls: active means growth percent below 10; inactive means the rest.
Answer with one of the outcomes given here: true = active, false = inactive

Prompt: Entry `CCN(CC)CCCCCCNc1cc(OC)c(Cl)c2cccnc12` : call = ?
Completion: false

Prompt: # outcome recorded in this test, key = CC(CN1CCCCC1)C(=O)c1ccccc1 (stereo unspecified)
Completion: false

Prompt: Just curious, what result did `O=C(COc1ccc(/C=C2\Oc3ccccc3C2=O)cc1)Nc1nc2ccccc2s1` get here?
Completion: true

Prompt: Recorded test call requested for N=C1C(c2nc(-c3ccc(Br)cc3)cs2)=C(O)CN1CC1CCCO1 (stereo unspecified)
Completion: false

Prompt: Write down the call the test reported for this compound. Item: CC1CC(C(C)(C)C)C(=O)C(C(C)(C)C)C1 (stereo unspecified)
Completion: false

Prompt: Any idea what this test logged for `COc1ccc(/C=c2\nc3n(-c4ccccc4)c4nc5c6c(sc5c(=N)n4n-3c2=O)CCCC6)cc1` ?
Completion: false
